So I've got a bunch of compounds here, and I need their pest or weed control at 140 g/ha values.
System: Euphorbia heterophylla L. (poinsettia, wild)
Test: General post-emergent herbicidal activity, foliar application
Assay type: in vivo
Settings: Euphorbia heterophylla, 336 h, 140 g ai/ha, foliar post-emergent, scored after 14 days; read-out: % Visual Growth Reduction EPHHL
Could you give me the number in %? Just the number is fine.

Here COC(=O)c1nc(C(C)F)c(F)c(N)c1Cl (stereo not shown) was tested on Euphorbia heterophylla L. (poinsettia, wild), and its pest or weed control at 140 g/ha came to 90

Hey, Euphorbia heterophylla L. (poinsettia, wild) data for COC(=O)c1nc(C(F)CF)cc(N)c1Cl (stereo not shown) : pest or weed control at 140 g/ha came out at 100

// returns pest or weed control at 140 g/ha for COC(=O)c1nc(C(C)(C)F)cc(N)c1Cl with Euphorbia heterophylla L. (poinsettia, wild); value = 100

Euphorbia heterophylla L. (poinsettia, wild) assay, compound COC(=O)c1nc(CF)c(Cl)c(N)c1Cl , recorded pest or weed control at 140 g/ha = 100

###

Test system: Zea mays L. (corn)
Assay: General post-emergent herbicidal activity, foliar application
Format: in vivo
Settings: 336 h, 280 g ai/ha, scored after 14 days, read-out: % Visual Growth Reduction ZEAMX
MEASURED_ATTRIBUTE: plant injury at 280 g/ha (%)
Numeric only. Scale: %

GET /values?item= COC(=O)c1nc(C(C)F)cc(N)c1Cl (stereo not drawn) &system= Zea mays L. (corn) returns plant injury at 280 g/ha: 100

Lab note: compound Nc1c(Cl)c(CF)nc(C(=O)O)c1Cl tested on Zea mays L. (corn); recorded plant injury at 280 g/ha was 0

The reported Zea mays L. (corn) plant injury at 280 g/ha of COC(=O)c1nc(CCF)c(F)c(N)c1Cl is 0

For the compound COC(=O)c1nc(CF)c(Cl)c(N)c1Cl , the measured plant injury at 280 g/ha on Zea mays L. (corn) was 0

Summary line: COC(=O)c1nc(C(F)F)c(Cl)c(N)c1Cl , Zea mays L. (corn), reported plant injury at 280 g/ha = 10

Item: Nc1c(F)c(C(F)F)nc(C(=O)O)c1Cl | System: Zea mays L. (corn) | plant injury at 280 g/ha: 10

###

Test system: Echinochloa crus-galli (L.) Beauv. (barnyardgrass)
Test: General post-emergent herbicidal activity, foliar application
Format: in vivo
Conditions: Echinochloa crus-galli, 336 h; 70 g ai/ha, foliar post-emergent, scored after 14 days; read-out: % Visual Growth Reduction ECHCG
Assignment: determine reported pest or weed control at 70 g/ha for the given molecules.
Hi! Could you send only the number? It should be in %, unit omitted.

Echinochloa crus-galli (L.) Beauv. (barnyardgrass) data for COC(=O)c1nc(C(F)F)c(Cl)c(N)c1Cl [Compound F7] ; its pest or weed control at 70 g/ha: 0

# pest or weed control at 70 g/ha measured on Echinochloa crus-galli (L.) Beauv. (barnyardgrass) for item COC(=O)c1nc(C(C)F)cc(N)c1Cl (centres unmarked) [Compound F19] = 0

For COC(=O)c1nc(CF)c(F)c(N)c1Cl [Compound F14] on Echinochloa crus-galli (L.) Beauv. (barnyardgrass), measured pest or weed control at 70 g/ha was 0

Assay Echinochloa crus-galli (L.) Beauv. (barnyardgrass), sample COC(=O)c1nc(C(C)F)c(F)c(N)c1Cl (centres unmarked) [Compound F15] , pest or weed control at 70 g/ha read: 20

// molecule CC(F)c1cc(N)c(Cl)c(C(=O)O)n1 (centres unmarked) [Compound F24] , assay Echinochloa crus-galli (L.) Beauv. (barnyardgrass), pest or weed control at 70 g/ha value: 55

Field pest or weed control at 70 g/ha (Echinochloa crus-galli (L.) Beauv. (barnyardgrass)), entry COC(=O)c1nc(C(F)CF)cc(N)c1Cl (centres unmarked) [Compound F28] : 0

Short answer on Echinochloa crus-galli (L.) Beauv. (barnyardgrass) for COC(=O)c1nc(C(C)F)c(Cl)c(N)c1Cl (centres unmarked) [Compound F10] , pest or weed control at 70 g/ha: 0

Field pest or weed control at 70 g/ha (Echinochloa crus-galli (L.) Beauv. (barnyardgrass)), entry COC(=O)c1nc(C(F)F)cc(N)c1Cl [Compound F12] : 0

Observed pest or weed control at 70 g/ha, Echinochloa crus-galli (L.) Beauv. (barnyardgrass), CC(F)c1nc(C(=O)O)c(Cl)c(N)c1Cl (centres unmarked) [Compound F16] : 0

Record Nc1c(F)c(CF)nc(C(=O)O)c1Cl [Compound F36] has Echinochloa crus-galli (L.) Beauv. (barnyardgrass) pest or weed control at 70 g/ha equal to 50

# lookup: COC(=O)c1nc(C(F)(F)F)cc(N)c1Cl [Prior Art 1, reference compound] on Echinochloa crus-galli (L.) Beauv. (barnyardgrass), pest or weed control at 70 g/ha = 0

###

Test system: Viola tricolor L. (pansy)
Assay: General post-emergent herbicidal activity, foliar application
Assay type: in vivo
Details: Viola tricolor, 336 h, 70 g ai/ha, foliar post-emergent, scored after 14 days; read-out: % Visual Growth Reduction VIOTR
Consider the following compounds; for each one, report its pest or weed control at 70 g/ha.
Could you give me the number in %? Just the number is fine.

# pest or weed control at 70 g/ha (compound: COC(=O)c1nc(C(F)F)c(Cl)c(N)c1Cl [Compound F7] ) is 0

Lab note: measured pest or weed control at 70 g/ha of COC(=O)c1nc(C(C)F)c(F)c(N)c1Cl (stereo not drawn) [Compound F15] was 45

Value of measured pest or weed control at 70 g/ha for the entry CC(F)c1nc(C(=O)O)c(Cl)c(N)c1Cl (stereo not drawn) [Compound F16] : 0

get_value(item= Nc1cc(C(F)F)nc(C(=O)O)c1Cl [Compound F27] , readout=pest or weed control at 70 g/ha) returns 100

Sure, the documented pest or weed control at 70 g/ha for COC(=O)c1nc(C(F)F)c(F)c(N)c1Cl [Compound F3] is 0

pest or weed control at 70 g/ha reading for CC(F)c1cc(N)c(Cl)c(C(=O)O)n1 (stereo not drawn) [Compound F24] : 100

###

For each record, write down the corresponding pest or weed control at 70 g/ha.
Tested on: Viola tricolor L. (pansy)
Assay: General post-emergent herbicidal activity, foliar application
Assay type: in vivo
Conditions: Viola tricolor, 336 h, 70 g ai/ha, foliar post-emergent, scored after 14 days; read-out: % Visual Growth Reduction VIOTR
Number only, in %; omit the unit.

Observed pest or weed control at 70 g/ha, Viola tricolor L. (pansy), COC(=O)c1nc(C(F)F)cc(N)c1Cl [Compound F12] : 100

// pest or weed control at 70 g/ha (Viola tricolor L. (pansy)) for COC(=O)c1nc(CF)c(F)c(N)c1Cl [Compound F14] = 0

The observed pest or weed control at 70 g/ha for COC(=O)c1nc(C(C)(C)F)cc(N)c1Cl [Compound F9] when tested with Viola tricolor L. (pansy) stands at 40

Short answer on Viola tricolor L. (pansy) for COC(=O)c1nc(C(C)F)c(Cl)c(N)c1Cl (centres unmarked) [Compound F10] , pest or weed control at 70 g/ha: 0

pest or weed control at 70 g/ha of COC(=O)c1nc(CCF)c(F)c(N)c1Cl [Compound F29] , assay on Viola tricolor L. (pansy), is 10

Bench note, Viola tricolor L. (pansy): entry Nc1c(F)c(CF)nc(C(=O)O)c1Cl [Compound F36] , its pest or weed control at 70 g/ha = 20

Field pest or weed control at 70 g/ha (system: Viola tricolor L. (pansy)) for entry Nc1c(Cl)c(C(=O)O)nc(C(F)F)c1Cl [Compound F13] = 0

The observed pest or weed control at 70 g/ha for COC(=O)c1nc(C(C)F)cc(N)c1Cl (centres unmarked) [Compound F19] when tested with Viola tricolor L. (pansy) stands at 100

The compound CC(F)c1nc(C(=O)O)c(Cl)c(N)c1F (centres unmarked) [Compound F30] , tested on Viola tricolor L. (pansy), showed pest or weed control at 70 g/ha of 10

Viola tricolor L. (pansy) data for COC(=O)c1nc(CF)c(Cl)c(N)c1Cl [Compound F1] ; its pest or weed control at 70 g/ha: 0

# value of pest or weed control at 70 g/ha, Viola tricolor L. (pansy), item COC(=O)c1nc(C(F)CF)cc(N)c1Cl (centres unmarked) [Compound F28] = 15

###

System: Echinochloa crus-galli (L.) Beauv. (barnyardgrass)
Test: General post-emergent herbicidal activity, foliar application
Type: in vivo
Settings: Echinochloa crus-galli, 336 h; 280 g ai/ha, foliar post-emergent, scored after 14 days; read-out: % Visual Growth Reduction ECHCG
Kindly supply the reported pest or weed control at 280 g/ha values for the records listed here.
API: value field is a number in %; no unit string.

Item: COC(=O)c1nc(C(C)F)cc(N)c1Cl (stereo not drawn) [Compound F19] | System: Echinochloa crus-galli (L.) Beauv. (barnyardgrass) | pest or weed control at 280 g/ha: 25

Field pest or weed control at 280 g/ha (Echinochloa crus-galli (L.) Beauv. (barnyardgrass)), entry C=C(F)c1cc(N)c(Cl)c(C(=O)OC)n1 [Compound F6] : 0

Result for COC(=O)c1nc(CCl)c(F)c(N)c1Cl [Compound F21] , tested on Echinochloa crus-galli (L.) Beauv. (barnyardgrass), pest or weed control at 280 g/ha: 0

Bench note, Echinochloa crus-galli (L.) Beauv. (barnyardgrass): Nc1c(Cl)c(CF)nc(C(=O)O)c1Cl [Compound F25] , pest or weed control at 280 g/ha reads 50

// returns pest or weed control at 280 g/ha for C=C(F)c1nc(C(=O)OC)c(Cl)c(N)c1F [Compound F22] with Echinochloa crus-galli (L.) Beauv. (barnyardgrass); value = 0

Echinochloa crus-galli (L.) Beauv. (barnyardgrass) pest or weed control at 280 g/ha of Nc1cc(C(F)F)nc(C(=O)O)c1Cl [Compound F27] is 80

pest or weed control at 280 g/ha of CC(F)c1nc(C(=O)O)c(Cl)c(N)c1F (stereo not drawn) [Compound F30] , assay on Echinochloa crus-galli (L.) Beauv. (barnyardgrass), is 80

Kindly note: Echinochloa crus-galli (L.) Beauv. (barnyardgrass), COC(=O)c1nc(CCF)c(F)c(N)c1Cl [Compound F29] , pest or weed control at 280 g/ha value reported: 60

Log: Echinochloa crus-galli (L.) Beauv. (barnyardgrass), compound CC(F)c1nc(C(=O)O)c(Cl)c(N)c1Cl (stereo not drawn) [Compound F16] , pest or weed control at 280 g/ha = 0
